molecular target: AKT1 E17K (Homo sapiens (Human), UniProt P31749, E17K); assay: Live cell target engagement (NanoBRET) in HEK293 cells; format: cell-based
Sequence (P31749 whole entry E17K): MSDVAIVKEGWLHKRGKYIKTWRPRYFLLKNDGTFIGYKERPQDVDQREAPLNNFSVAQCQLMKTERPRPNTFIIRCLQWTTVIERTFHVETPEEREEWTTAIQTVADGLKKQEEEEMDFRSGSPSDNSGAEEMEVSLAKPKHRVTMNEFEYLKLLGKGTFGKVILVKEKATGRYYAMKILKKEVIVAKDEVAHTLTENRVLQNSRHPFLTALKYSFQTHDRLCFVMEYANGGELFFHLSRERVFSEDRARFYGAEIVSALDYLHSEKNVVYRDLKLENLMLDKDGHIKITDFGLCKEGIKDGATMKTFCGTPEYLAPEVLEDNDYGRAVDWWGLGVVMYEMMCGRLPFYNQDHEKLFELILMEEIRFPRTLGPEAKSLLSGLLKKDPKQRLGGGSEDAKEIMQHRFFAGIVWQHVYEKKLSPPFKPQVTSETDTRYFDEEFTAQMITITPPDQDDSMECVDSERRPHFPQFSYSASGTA
Entries whose AKT1 E17K IC50: Selectivity vs AKT1 WT is below 2 take MET; entries at or above 2 take NOT MET.

Query: Lab log: compare recorded AKT1 E17K IC50: Selectivity vs AKT1 WT with 2; is it strictly lower for Nc1ncccc1-c1nc2ccc(-c3ccccc3)nc2n1-c1ccc(NC(=O)CCc2ccc(C=O)c(O)c2)cc1 ?
Reply: MET

Query: Next up: Nc1ncccc1-c1nc2ccc(-c3cccnc3)nc2n1-c1ccc(CNC(=O)Cc2ccc(C=O)c(O)c2)cc1
Reply: NOT MET

Query: Next up: Nc1ncccc1-c1nc2ccc(N3CC4CCC(C3)O4)nc2n1-c1ccc(CNC(=O)Cc2ccc(C=O)c(O)c2)cc1
Reply: NOT MET

Query: Next up: CS(=O)(=O)Nc1cccc(-c2ccc3nc(-c4cccnc4N)n(-c4ccc(CNCCc5ccc(C=O)c(O)c5)cc4)c3n2)c1
Reply: MET

Query: Next up: C[C@H](NCCc1ccc(O)c(C=O)c1)c1ccc(-n2c(-c3cccnc3N)nc3ccc(-c4ccccc4)nc32)cc1
Reply: MET

Query: Next up: CC(C)(C)c1cc(C(=O)NCc2ccc(-n3c(-c4cccnc4N)nc4ccc(-c5ccccc5)nc43)cc2)cc(C=O)c1O
Reply: MET

Query: Next up: Cc1ccc2nc(-c3cccnc3N)n(-c3ccc(CNC(=O)Cc4ccc(C=O)c(O)c4)cc3)c2n1
Reply: NOT MET

Query: Next up: CC(=O)Nc1c(C=O)ccc(CCNCc2ccc(-n3c(-c4cccnc4N)nc4cccnc43)cc2)c1F
Reply: MET

Query: Next up: Nc1ncccc1-c1nc2cccnc2n1-c1ccc(CNC(=O)c2ccc(C=O)c(O)c2)cc1
Reply: MET

Query: Next up: Nc1ncccc1-c1nc2ccc(-c3ccccc3)nc2n1-c1ccc(CNC(=O)Cc2ccc(C=O)c(O)c2C(F)(F)F)cc1
Reply: NOT MET

Query: Next up: Nc1ncccc1-c1nc2ccc(-c3ccccc3)nc2n1-c1ccc(C(=O)NCc2ccc(C=O)c(O)c2)cc1
Reply: MET

Query: Next up: Nc1ncccc1-c1nc2ccc(-c3ccccn3)nc2n1-c1ccc(CNCCc2ccc(C=O)c(O)c2)cc1
Reply: NOT MET

Query: Next up: Nc1ncccc1-c1nc2ccc(-c3ccccc3)nc2n1-c1ccc(CNCCCc2ccc(O)c(C=O)c2)cc1
Reply: MET

Query: Next up: Nc1ncccc1-c1nc2ccc(-c3ccccc3)nc2n1-c1ccc(S(=O)(=O)NCCc2ccc(C=O)c(O)c2)cc1
Reply: MET

* * *

molecular target: AKT1 E17K (Homo sapiens (Human), UniProt P31749, E17K); assay: Live cell target engagement (NanoBRET) in HEK293 cells; format: cell-based; conditions: HEK293, 2 hours at 37° C.
pIC50: −log10 of the molar value.
Endpoint: pIC50

Query: Recorded pIC50 for CC(C)(C)c1cc(C(=O)NCc2ccc(-n3c(-c4cccnc4N)nc4ccc(-c5ccccc5)nc43)cc2)cc(C=O)c1O , please?
Reply: < 6.30

Query: Next up: Nc1ncccc1-c1nc2ccc(-c3ccccc3)nc2n1-c1ccc(CNCCc2ccc(C=O)c(O)c2)cc1
Reply: > 7.00

Query: Next up: Nc1ncccc1-c1nc2ccc(-c3cccnc3)nc2n1-c1ccc(CNC(=O)C2(c3ccc(C=O)c(O)c3)CC2)cc1
Reply: > 7.00

Query: Next up: Nc1ncccc1-c1nc2ccc(-c3ccccc3)nc2n1-c1ccc(CCNCc2ccc(C=O)c(O)c2)cc1
Reply: > 7.00

Query: Next up: Nc1ncccc1-c1nc2ccc(C(F)F)nc2n1-c1ccc(CNC(=O)Cc2ccc(C=O)c(O)c2)cc1
Reply: > 7.00

Query: Next up: Nc1ncccc1-c1nc2ccc(-c3ccccc3)nc2n1-c1ccc(CNC(=O)Cc2ccc(C=O)c(O)c2C(F)(F)F)cc1
Reply: > 7.00

Query: Next up: Nc1ncccc1-c1nc2ccc(-c3ccccc3)nc2n1-c1ccc(CNC(=O)CCc2ccc(C=O)c(O)c2)cc1
Reply: 6.30 to 7.00

* * *

biological target: AKT1 E17K (Homo sapiens (Human), UniProt P31749, E17K); assay: Live cell target engagement (NanoBRET) in HEK293 cells; format: cell-based
Mark NOT MET for AKT1 E17K IC50: Selectivity vs AKT2 values under 80, and MET for everything at or above.

Query: Has Nc1ncccc1-c1nc2ccc(N3CCOCC3)nc2n1-c1ccc(CNCCc2ccc(C=O)c(O)c2)cc1 a recorded AKT1 E17K IC50: Selectivity vs AKT2 greater than or equal to 80?
Reply: NOT MET

Query: Next up: Cn1cc(-c2ccc3nc(-c4cccnc4N)n(-c4ccc(CNC(=O)Cc5ccc(C=O)c(O)c5)cc4)c3n2)cn1
Reply: MET

Query: Next up: Nc1ncccc1-c1nc2ccc(-c3ccccn3)nc2n1-c1ccc(CNCCc2ccc(C=O)c(O)c2)cc1
Reply: NOT MET

Query: Next up: Nc1ncccc1-c1nc2ccc(-c3ccccc3)nc2n1-c1ccc(CC(=O)NCc2ccc(C=O)c(O)c2)cc1
Reply: MET

Query: Next up: Nc1ncccc1-c1nc2ccc(-n3cccn3)nc2n1-c1ccc(C2(NC(=O)Cc3ccc(C=O)c(O)c3F)CC2)cc1
Reply: NOT MET

Query: Next up: CN(CCc1ccc(C=O)c(O)c1)C(=O)c1ccc(-n2c(-c3cccnc3N)nc3ccc(-c4ccccc4)nc32)cc1
Reply: NOT MET

Query: Next up: CC(=O)Nc1cc(CCNCc2ccc(-n3c(-c4cccnc4N)nc4ccc(-c5ccccc5)nc43)cc2)ccc1C=O
Reply: NOT MET

* * *

target: AKT1 E17K (Homo sapiens (Human), UniProt P31749, E17K); assay: Live cell target engagement (NanoBRET) in HEK293 cells; type: cell-based
Endpoint: AKT1 E17K IC50: Selectivity vs AKT2
No unit in the answer, please; the number alone is enough.

Query: Recorded AKT1 E17K IC50: Selectivity vs AKT2 for Nc1ncccc1-c1nc2cccnc2n1-c1ccc(CNC(=O)C(F)c2ccc(C=O)c(O)c2)cc1 (stereo not shown) [Compound 74] , please?
Reply: 130

Query: Next up: Nc1ncccc1-c1nc2ccc(-c3ccccc3)nc2n1-c1ccc(CNC(=O)Cc2ccc(C=O)c(O)c2F)cc1 [Compound 94]
Reply: 22

Query: Next up: Nc1ncccc1-c1nc2ccc(-c3ccccc3)nc2n1-c1ccc(NC(=O)Cc2ccc(O)c(C=O)c2)cc1 [Compound 28]
Reply: 17

Query: Next up: Nc1ncccc1-c1nc2ccc(-c3ccccc3)nc2n1-c1ccc(CNC(=O)c2ccc(C=O)c(O)c2F)cc1 [Compound 85]
Reply: 6.5

Query: Next up: Cc1c(CC(=O)NCc2ccc(-n3c(-c4cccnc4N)nc4ccc(-c5ccccc5)nc43)cc2)ccc(C=O)c1O [Example 14]
Reply: 36

Query: Next up: Nc1ncccc1-c1nc2ccc(C3CC3C(=O)N3CCOCC3)nc2n1-c1ccc(CNC(=O)Cc2ccc(C=O)c(O)c2)cc1 (stereo not shown) [Example 6]
Reply: 18

Query: Next up: C[C@H](NCCc1ccc(O)c(C=O)c1)c1ccc(-n2c(-c3cccnc3N)nc3ccc(-c4ccccc4)nc32)cc1 [Compound 92]
Reply: 0.75

* * *

target: AKT1 E17K (Homo sapiens (Human), UniProt P31749, E17K); assay: Live cell target engagement (NanoBRET) in HEK293 cells; type: cell-based
Would you mind telling me the reported AKT1 E17K IC50: Selectivity vs AKT2 of each entry?
No unit in the answer, please; the number alone is enough.

Query: Recorded AKT1 E17K IC50: Selectivity vs AKT2 for Nc1ncccc1-c1nc2ccc(-c3ccccc3)nc2n1-c1ccc(CNC(=O)Cc2ccc(C=O)c(O)c2)cc1 , please?
Reply: 23

Query: Next up: Nc1ncccc1-c1nc2ccc(-c3ccccc3)nc2n1-c1ccc(CNc2cc(-c3ccc(O)c(C=O)c3)ccn2)cc1
Reply: 1.7

Query: Next up: Nc1ncccc1-c1nc2ccc(-c3ccccc3)nc2n1-c1ccc(CNC(=O)c2cc(Br)c(O)c(C=O)c2)cc1
Reply: 32

Query: Next up: Nc1ncccc1-c1nc2ccc(C3CC3)nc2n1-c1ccc(CNC(=O)c2ccc(O)c(C=O)c2)cc1
Reply: 110

Query: Next up: Nc1ncccc1-c1nc2ccc(-c3ccccc3)nc2n1-c1ccc(NC(=O)CCc2ccc(C=O)c(O)c2)cc1
Reply: 29

Query: Next up: Nc1ncccc1-c1nc2ccc(-c3ccccc3)nc2n1-c1ccc(S(=O)(=O)NCCc2ccc(C=O)c(O)c2)cc1
Reply: 0.91

Query: Next up: Nc1ncccc1-c1nc2ccc(-c3ccnc(N4CCOCC4)c3)nc2n1-c1ccc(CNC(=O)Cc2ccc(C=O)c(O)c2)cc1
Reply: 40

* * *

target: AKT1 E17K (Homo sapiens (Human), UniProt P31749, E17K); assay: Dissociation rate by intact protein LCMS after ARQ092 chase; assay type: binding; details: compound 1.5 μM, 2 hours at 37° C., then ARQ092 50 μM
Sequence (P31749 2-480 E17K): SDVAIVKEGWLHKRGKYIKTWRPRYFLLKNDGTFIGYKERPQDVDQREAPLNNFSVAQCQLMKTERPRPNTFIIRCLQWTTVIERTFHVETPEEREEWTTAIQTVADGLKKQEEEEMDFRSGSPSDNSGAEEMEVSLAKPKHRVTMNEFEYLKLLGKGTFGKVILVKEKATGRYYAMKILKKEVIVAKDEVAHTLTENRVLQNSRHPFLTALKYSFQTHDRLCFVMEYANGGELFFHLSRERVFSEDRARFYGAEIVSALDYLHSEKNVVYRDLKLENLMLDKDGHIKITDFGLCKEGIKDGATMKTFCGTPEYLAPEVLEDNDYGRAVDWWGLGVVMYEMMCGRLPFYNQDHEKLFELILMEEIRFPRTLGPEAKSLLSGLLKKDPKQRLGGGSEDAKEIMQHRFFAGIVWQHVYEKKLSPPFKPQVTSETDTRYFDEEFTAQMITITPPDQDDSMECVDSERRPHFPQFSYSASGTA
Mark NOT MET for AKT1 E17K t1/2 values under 2 h, and MET for everything at or above.

Query: Has CC(=O)Nc1cc(CCNCc2ccc(-n3c(-c4cccnc4N)nc4ccc(-c5ccccc5)nc43)cc2)ccc1C=O a recorded AKT1 E17K t1/2 greater than or equal to 2 h?
Reply: NOT MET

Query: Next up: Nc1ncccc1-c1nc2cccnc2n1-c1ccc(CNC(=O)Cc2ccc(C=O)c(O)c2)cc1
Reply: NOT MET

Query: Next up: Nc1ncccc1-c1nc2ccc(-c3cccc(N4CCOCC4)c3)nc2n1-c1ccc(CNC(=O)Cc2ccc(C=O)c(O)c2F)cc1
Reply: NOT MET

Query: Next up: Nc1ncccc1-c1nc2ccc(-c3ccccc3)nc2n1-c1ccc(CNCCc2ccc(C=O)c(O)c2)cc1
Reply: MET

Query: Next up: Nc1ncccc1-c1nc2ccc(-c3ccccc3)nc2n1-c1ccc(CNC(=O)Cc2ccc(C=O)c(O)c2F)cc1
Reply: NOT MET

Query: Next up: Nc1ncccc1-c1nc2ccc(-c3ccccc3)nc2n1-c1ccc(CNCCc2ccc(C=O)cc2)cc1
Reply: MET

Query: Next up: Nc1ncccc1-c1nc2cccnc2n1-c1ccc(CNC(=O)C(F)c2ccc(C=O)c(O)c2)cc1 (stereo not drawn)
Reply: NOT MET

Query: Next up: Nc1ncccc1-c1nc2ccc(-c3ccccc3)nc2n1-c1ccc(CNC(=O)c2ccc(O)c(C=O)c2)cc1
Reply: NOT MET

Query: Next up: Nc1ncccc1-c1nc2ccc(-c3ccccc3)nc2n1-c1ccc(C2(NC(=O)Cc3ccc(C=O)c(O)c3F)CC2)cc1
Reply: MET

Hey, just so you know, these numbers are from patent US20250115600A1.
